Molecular target: AChE from human blood (Homo sapiens)
Construct: the enzyme extracted from human blood
Sequence (P22303 32-617 isoform P22303-2 limits assumed): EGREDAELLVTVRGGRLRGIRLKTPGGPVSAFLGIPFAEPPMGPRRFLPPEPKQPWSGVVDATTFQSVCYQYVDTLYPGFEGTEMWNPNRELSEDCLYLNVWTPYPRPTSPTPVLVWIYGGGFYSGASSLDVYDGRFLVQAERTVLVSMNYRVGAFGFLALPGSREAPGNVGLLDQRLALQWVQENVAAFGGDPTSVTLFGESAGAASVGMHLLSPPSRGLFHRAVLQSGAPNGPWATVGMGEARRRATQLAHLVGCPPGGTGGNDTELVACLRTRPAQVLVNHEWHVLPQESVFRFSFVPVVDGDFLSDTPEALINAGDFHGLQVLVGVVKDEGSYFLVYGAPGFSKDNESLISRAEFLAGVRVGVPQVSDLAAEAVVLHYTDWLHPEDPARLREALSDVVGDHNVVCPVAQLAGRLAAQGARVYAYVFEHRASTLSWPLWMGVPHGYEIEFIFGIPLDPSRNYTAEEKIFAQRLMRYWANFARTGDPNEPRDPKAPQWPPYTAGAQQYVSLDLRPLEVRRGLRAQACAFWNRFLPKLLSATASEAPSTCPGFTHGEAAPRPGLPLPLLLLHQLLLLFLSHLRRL
Test: biochemical
Conditions: AChE obtained from human blood samples; Ellman; read-out: IC50 ± SEM, AChE hb
Please note: IC50 exactly at 200 nM is no (0). Only values below 200 nM get yes (1).

Request: Is 200 nM strictly greater than the compound's reported IC50? compound: C=C(C)[C@@H]1CC[C@]2(C(=O)O)CC[C@]3(C)[C@H](CC[C@@H]4[C@@]5(C)[C@H](CO)[C@@H](O)C(C)(C)[C@@H]5CC[C@]43C)[C@@H]12
Response: yes (1)

Request: Is 200 nM strictly greater than the compound's reported IC50? compound: C=C(C)[C@@H]1CC[C@]2(C(=O)O)CC[C@]3(C)[C@H](CC[C@@H]4[C@@]5(C)[C@@H](C(=O)O)[C@H](O)C(C)(C)[C@@H]5CC[C@]43C)[C@@H]12
Response: yes (1)

Request: Is 200 nM strictly greater than the compound's reported IC50? compound: C=C(C)[C@@H]1CC[C@]2(C(=O)O)CC[C@]3(C(=O)O)[C@H](CC[C@@H]4[C@@]5(C)C=CC(C)(C)[C@@H]5CC[C@]43C)[C@@H]12
Response: no (0)

Request: Is 200 nM strictly greater than the compound's reported IC50? compound: C=C(C)[C@@H]1CC[C@]2(C(=O)O)CC[C@]3(C)C(CCC4[C@@]5(C)C(C=O)=CC(C)(C)C5CC[C@]43C)C12 (stereo partly shown)
Response: no (0)

Request: Is 200 nM strictly greater than the compound's reported IC50? compound: C=C(C)[C@@H]1CC[C@]2(C(=O)O)CC[C@]3(C)C(CCC4[C@@]5(C)C(C(=O)O)C(OC(C)=O)C(C)(C)C5CC[C@]43C)C12 (stereo partly shown)
Response: no (0)

Request: Is 200 nM strictly greater than the compound's reported IC50? compound: C=C(C)[C@@H]1CC[C@]2(C(=O)O)CC[C@]3(C)C(CCC4[C@@]5(C)C(C=O)C(O)C(C)(C)C5CC[C@]43C)C12 (stereo partly shown)
Response: yes (1)

###

Record: IC50 reported on AChE from Electrophorus electricus (Electrophorus electricus).
Sequence (O42275 24-633): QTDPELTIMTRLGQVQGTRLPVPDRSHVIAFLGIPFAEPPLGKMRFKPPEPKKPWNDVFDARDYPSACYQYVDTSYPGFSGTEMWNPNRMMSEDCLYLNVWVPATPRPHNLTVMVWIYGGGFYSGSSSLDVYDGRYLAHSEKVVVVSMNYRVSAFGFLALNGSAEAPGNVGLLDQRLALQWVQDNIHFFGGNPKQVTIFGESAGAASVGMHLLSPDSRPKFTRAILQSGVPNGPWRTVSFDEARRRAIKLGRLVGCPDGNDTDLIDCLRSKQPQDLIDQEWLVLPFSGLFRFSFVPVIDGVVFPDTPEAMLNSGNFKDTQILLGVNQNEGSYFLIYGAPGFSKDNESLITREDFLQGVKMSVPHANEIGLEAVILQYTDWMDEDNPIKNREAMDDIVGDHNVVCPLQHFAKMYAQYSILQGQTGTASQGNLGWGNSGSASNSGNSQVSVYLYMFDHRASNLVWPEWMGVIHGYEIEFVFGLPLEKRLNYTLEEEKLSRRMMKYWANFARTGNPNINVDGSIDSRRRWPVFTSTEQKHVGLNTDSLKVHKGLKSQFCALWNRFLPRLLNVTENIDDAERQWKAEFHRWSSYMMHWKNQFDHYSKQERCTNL
Respond with the bare value in nM.

Molecule	Target of assay	Measure unit	IC50
C=C(C)[C@@H]1CC[C@]2(C(=O)O)CC[C@]3(C)C(CCC4[C@@]5(C)C(C=O)=CC(C)(C)C5CC[C@]43C)C12 (stereo partly shown) [Compound 1, Zizyberenalic acid]	AChE from Electrophorus electricus (Electrophorus electricus)	nM	184
C=C(C)[C@@H]1CC[C@]2(C(=O)O)CC[C@]3(C)[C@H](CC[C@@H]4[C@@]5(C)[C@H](CO)[C@@H](O)C(C)(C)[C@@H]5CC[C@]43C)[C@@H]12 [Compound 5, Ceanothanolic acid]	AChE from Electrophorus electricus (Electrophorus electricus)	nM	155
C=C(C)[C@@H]1CC[C@]2(C(=O)O)CC[C@]3(C)C(CCC4[C@@]5(C)C(C(=O)O)C(=O)C(C)(C)C5CC[C@]43C)C12 (stereo partly shown) [Compound 6, 3-oxo-ceanothic acid]	AChE from Electrophorus electricus (Electrophorus electricus)	nM	172
C=C(C)[C@@H]1CC[C@]2(C(=O)O)CC[C@]3(C)[C@H](CC[C@@H]4[C@@]5(C)[C@@H](C(=O)O)[C@H](O)C(C)(C)[C@@H]5CC[C@]43C)[C@@H]12 [Compound 3, Ceanothic acid]	AChE from Electrophorus electricus (Electrophorus electricus)	nM	125
C=C(C)[C@@H]1CC[C@]2(C(=O)O)CC[C@]3(C)C(CCC4[C@@]5(C)C(C(=O)O)C(OC(C)=O)C(C)(C)C5CC[C@]43C)C12 (stereo partly shown) [Compound 7, 3-O-acetyl-ceanothic acid]	AChE from Electrophorus electricus (Electrophorus electricus)	nM	179

Request: For the record C=C(C)[C@@H]1CC[C@]2(C(=O)O)CC[C@]3(C)C(CCC4[C@@]5(C)C(C=O)C(O)C(C)(C)C5CC[C@]43C)C12 (stereo partly shown) [Compound 2, Zizyberanalic acid] , what value of IC50 is listed for AChE from Electrophorus electricus (Electrophorus electricus)?
Response: 150

Request: For the record C=C(C)[C@@H]1CC[C@]2(C(=O)O)CC[C@]3(C(=O)O)[C@H](CC[C@@H]4[C@@]5(C)C=CC(C)(C)[C@@H]5CC[C@]43C)[C@@H]12 [Compound 4, Ceanothenic acid] , what value of IC50 is listed for AChE from Electrophorus electricus (Electrophorus electricus)?
Response: 188
